Target protein (sequence): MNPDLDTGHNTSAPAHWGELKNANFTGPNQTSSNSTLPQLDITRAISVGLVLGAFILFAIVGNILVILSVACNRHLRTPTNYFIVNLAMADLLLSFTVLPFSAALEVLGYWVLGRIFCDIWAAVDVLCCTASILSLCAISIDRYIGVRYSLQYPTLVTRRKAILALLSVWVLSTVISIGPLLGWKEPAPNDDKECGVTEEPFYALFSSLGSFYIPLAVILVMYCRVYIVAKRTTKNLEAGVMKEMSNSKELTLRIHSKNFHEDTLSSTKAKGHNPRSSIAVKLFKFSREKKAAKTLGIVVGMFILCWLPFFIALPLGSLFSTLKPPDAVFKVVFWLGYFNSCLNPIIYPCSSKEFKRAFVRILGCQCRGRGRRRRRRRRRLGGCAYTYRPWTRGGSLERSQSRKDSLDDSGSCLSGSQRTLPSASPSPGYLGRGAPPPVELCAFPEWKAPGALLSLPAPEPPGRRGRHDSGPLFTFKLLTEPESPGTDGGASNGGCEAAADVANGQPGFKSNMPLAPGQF
pKi: −log10 of the molar value.
parameter: pKi

* COc1ccccc1NC(=O)N[C@H]1CC[C@H](N2CCN(c3ccccc3OC(C)C)CC2)CC1 | 6.97
* CC(C)Oc1ccccc1N1CCN([C@H]2CC[C@H](NC(=O)Nc3c(F)cccc3F)CC2)CC1 | 7.45
* CC(C)Oc1ccccc1N1CCN([C@H]2CC[C@H](NC(=O)Nc3ccccc3Cl)CC2)CC1 | 7.41

(A) CC(C)Oc1ccccc1N1CCN([C@H]2CC[C@H](NC(=O)Nc3ccc(F)cc3F)CC2)CC1
(B) CC(C)Oc1ccccc1N1CCN(C2CCC(NC(=O)Nc3ccccc3Oc3ccccc3)CC2)CC1 (mixture of isomers)
Which record would sort first by descending pKi, A or B ? Identify your selection by its label. A
(A: 7.12, B: 6.37)
